So I've got a bunch of binders here, and I need their IC99 values.
- STUDY_TARGET: Human SARS-CoV-2_Wuhan S (SmT1) (SARS-CoV-2 (Wuhan), UniProt P0DTC2 14-1208)
- PROTOCOL_DETAILS: flow cytometry SVNA, VHH vs biotin-S binding to Vero E6 ACE2
Numbers only, in nM.

BINDER	UNITS_LABEL	IC99
NRCoV2-18 VHH (VHH) VHH: EVQLVESGGGLVQAGGSLRLSCVASGITISGYNMAWWRQTRGKQTERVAFINSGGSTTYSDSVKGRFTISRDNGKNTAYLQMNSLNAEDTADYFCSLHTSHDYWGQGTQVTVSS	nM	133

Please fill in: IC99 reported for NRCoV2-MRed05 VHH (VHH) VHH: EVQLVESGGGLVQPGGSLRLSCAASGFTLDYYAIGWFRQAPGKEREGVSCISSSDGSTLYADSVKGRFTISRDNAKNTVYLQMNSLKPEDTAVYYCATGPQAYYSGSYYFQCPQAGMDYWGKGTQVTVSS = 184
